Target: native human TRPA1 receptors (Homo sapiens, UniProt O75762)
Construct: stably expressing native human TRPA1 receptors were used; endogenous in cells; host or cells: A549 human lung adenocarcinoma epithelial cell line
Sequence (O75762 whole entry): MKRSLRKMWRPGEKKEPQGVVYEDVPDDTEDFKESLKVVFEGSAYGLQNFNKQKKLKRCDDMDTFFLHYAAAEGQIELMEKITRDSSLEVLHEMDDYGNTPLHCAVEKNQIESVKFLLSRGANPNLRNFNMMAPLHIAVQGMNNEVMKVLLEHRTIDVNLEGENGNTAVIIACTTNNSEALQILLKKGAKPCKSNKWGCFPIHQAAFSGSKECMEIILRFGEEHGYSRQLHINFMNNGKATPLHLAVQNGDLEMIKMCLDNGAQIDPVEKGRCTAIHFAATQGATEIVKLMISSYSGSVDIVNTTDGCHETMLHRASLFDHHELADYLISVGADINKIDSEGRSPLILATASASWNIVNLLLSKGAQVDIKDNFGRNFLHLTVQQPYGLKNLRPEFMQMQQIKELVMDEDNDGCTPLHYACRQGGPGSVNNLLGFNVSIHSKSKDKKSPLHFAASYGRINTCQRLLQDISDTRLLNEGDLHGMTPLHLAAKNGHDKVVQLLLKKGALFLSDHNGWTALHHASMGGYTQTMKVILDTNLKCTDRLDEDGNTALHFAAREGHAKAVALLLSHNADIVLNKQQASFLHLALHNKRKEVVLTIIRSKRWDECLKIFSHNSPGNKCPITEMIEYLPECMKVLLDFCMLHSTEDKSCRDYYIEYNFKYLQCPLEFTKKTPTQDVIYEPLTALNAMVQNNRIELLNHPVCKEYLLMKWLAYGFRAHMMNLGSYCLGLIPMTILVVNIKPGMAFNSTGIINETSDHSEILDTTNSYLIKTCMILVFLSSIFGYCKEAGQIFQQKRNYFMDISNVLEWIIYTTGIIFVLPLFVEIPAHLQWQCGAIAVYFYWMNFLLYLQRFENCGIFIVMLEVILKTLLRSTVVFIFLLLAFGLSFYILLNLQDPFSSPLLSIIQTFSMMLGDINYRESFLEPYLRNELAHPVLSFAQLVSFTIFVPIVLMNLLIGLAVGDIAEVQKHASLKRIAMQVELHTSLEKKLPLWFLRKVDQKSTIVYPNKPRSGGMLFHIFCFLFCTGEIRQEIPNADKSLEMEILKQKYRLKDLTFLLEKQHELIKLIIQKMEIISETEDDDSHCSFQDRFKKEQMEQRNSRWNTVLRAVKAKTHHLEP
Experiment: PF-4840154 (1 μM)-induced Ca2+ fluorescence measurements in A549 cell line
Type: cell-based
Conditions: against PF-4840154 (1 μM)-evoked [Ca2+]i mobilization, A549 cells
Decision: IC50 beneath 300 nM gives rule met; IC50 meeting or exceeding 300 nM gives rule not met.

- C/C=C(/C(=O)NCc1cccc(-c2ccc(C(F)(F)F)cc2)c1)N(C)S(=O)(=O)c1ccc(Cl)cc1 [Example 23]: rule not met
- C=C(C(=O)NCc1cc(-c2ccc(OC(F)(F)F)cc2)nc(N2CCN(CC3CC3)CC2)c1)N(CC)S(=O)(=O)c1ccc(F)cc1 [Example 63]: rule met
- CCN(C1(C(=O)NCc2ccnc(-c3ccc(OC(F)(F)F)cc3)c2)CC1)S(=O)(=O)c1ccc(F)cc1 [Example 26]: rule met
- CCN(C1(C(=O)NCc2cccc(-c3ccc(OC(F)(F)F)cc3)c2)CC1)S(=O)(=O)c1ccc(F)cc1 [Example 31]: rule met
- C=C(C(=O)NCc1ccnc(-c2ccc(C(F)(F)F)cc2)c1)N(C)S(=O)(=O)c1ccc(F)cc1 [Example 56]: rule met
- C/C=C(/C(=O)NCc1ccnc(-c2ccc(OC(F)(F)F)cc2)c1)N(C)S(=O)(=O)c1ccc(F)cc1 [Example 21]: rule not met
- C/C=C(/C(=O)NCc1cccc(-c2ccc(C(F)(F)F)cc2)c1)N(CC)S(=O)(=O)c1ccc(Cl)cc1 [Example 24]: rule not met
- C=C(C(=O)NCc1cc(-c2ccc(C(F)(F)F)cc2)nc(N(C)C)c1)N(CC)S(=O)(=O)c1ccc(F)cc1 [Example 37]: rule met
- CCOc1cc(CNC(=O)C2(N(CC)S(=O)(=O)c3ccc(Cl)s3)CC2)cc(-c2ccc(C(F)(F)F)cc2)n1 [Example 53]: rule met

Source of measurements: patent US9409864B2
